meta.source: PubChem BioAssay (NCI)

System: SF-268 CNS
Experiment: NCI-60 one-dose screen, 48 h (100 = growth as untreated, 0 = no growth, -100 = all killed)
Details: 10 µM unless noted
Compounds without any hit were thinned out: in the full panel of roughly 83,000, 20% have a hit. Active and inactive are the calls of the source. The calls were made as follows: active = growth percent below 10; inactive = the rest.
Known growth of a selection of compounds

compound: CC(=O)SC1CC(=O)C=C2CCC3C4CCC(=O)OC4(C)CCC3C21C (stereo not drawn)
growth: 105% (inactive)

compound: O=C(O)CCCN1C(=O)C2C3CCC(C3)C2C1=O (stereo not drawn)
growth: 107% (inactive)

compound: CCC1=C[C@]2(C3CC(=O)N(c4ccccc4)C3=O)CC(C(C)(C)C)C[C@@H]2[C@@H]2C(=O)N(c3ccccc3)C(=O)[C@H]12 (stereo partly drawn)
growth: 78.5% (inactive)

compound: COc1cc(/C=C2\CN(C)C/C(=C\c3cc(CN4CCCC4)c(O)c(OC)c3)C2=O)cc(CN2CCCC2)c1O
growth: 61.3% (inactive)

compound: CCn1c(Cc2ccccc2Nc2c(Cl)cccc2Cl)nnc1SCC(=O)NN1C(=O)/C(=C/c2cccc(OC)c2OC)SC1=S
growth: 96.1% (inactive)

compound: CN(C)c1ccc(/C=C/c2ccnc3c(O)cccc23)cc1
growth: 12.5% (inactive)

compound: CN1CCN(Cc2ccc(C(=O)Nc3cncc(C#Cc4cnc(N)c5ccccc45)c3)cc2C(F)(F)F)CC1
growth: -69.5% (active)

compound: CCN1CCN(C(=S)SCC(=O)Nc2nc3ccc(C)cc3s2)CC1
growth: 107% (inactive)

compound: CS(=O)(=O)Nc1ccc(C(=O)NC(C(=O)NO)c2ccc(-c3cccc(F)c3)cc2)cc1 (stereo not drawn)
growth: 47.3% (inactive)

compound: Nc1ncnc(N)c1NC(=O)c1ccc(OCc2ccccc2)cc1
growth: 104% (inactive)

compound: O=C(COc1cc(O)c2c(=O)cc(-c3ccccc3)oc2c1)Nc1ccccc1
growth: 91% (inactive)

compound: COc1ccc(C2c3ccc4ccccc4c3Oc3ncn(CCCn4ccnc4)c(=N)c32)cc1OC (stereo not drawn)
growth: 89.5% (inactive)

compound: CCCc1c(C)c2sc(=O)[nH]c2[nH]c1=O
growth: 99.6% (inactive)

compound: C=CCN1C(=O)/C(=c2\sc3n(c2=O)NC2C(N=3)N(CC)C(=O)N2CC)c2ccccc21 (stereo not drawn)
growth: 59.7% (inactive)

compound: COc1ccc(Cn2c(Br)c3c(c2Br)-c2nc(N)sc2CC3)cc1
growth: 45.2% (inactive)

compound: O=c1oc2ccc(Br)cc2c(=O)n1-c1ccc(Cl)cc1F
growth: 8.43% (active)

compound: O=C(Nc1ccccc1O)c1ccc(-c2ccc(Cl)cc2Cl)o1
growth: 77.1% (inactive)

compound: CCOc1cccc(/C=N\Nc2nc(=O)cc(C(=O)OC)s2)c1O
growth: 76% (inactive)

compound: CCC1=C[C@@H]2CN(C1)Cc1c([nH]c3ccccc13)[C@@](C(=O)OC)(c1cc3c(cc1OC)N(C)[C@H]1[C@@](O)(C(=O)OC)[C@H](OC(C)=O)[C@]4(CC)[C@@H]5C[C@@H]5CN5CC[C@]31[C@@H]54)C2
growth: 8.9% (active)

compound: NC1(N2SC(S)=C3CCCC=C32)CCCCC1
growth: 96.3% (inactive)

compound: CCOC(=O)c1sc(-c2ccc(OS(=O)(=O)C[C@]34CCC(CC3=O)C4(C)C)c(C=O)c2)nc1C
growth: 15% (inactive)

compound: CCOc1ccc(-c2nonc2NC(=O)c2cccc(C)c2)cc1OCC
growth: 84.1% (inactive)

compound: COc1ccc(C2C3=C(COC3=O)N(CCO)c3cc4c(cc32)CCC4)cc1 (stereo not drawn)
growth: 74.5% (inactive)
